Experiment: in vitro
Conditions: Chinese hamster
Protocol: Cytotoxicity was evaluated on CHO cells utilizing a standard 3-[4,5-dimethylthiazol-2-yl]-2,5-diphenyl tetrazolium bromide (MTT) assay. The MTT is a yellow tetrazolium salt that is reduced to purple formazan in the presence of living cells. This reduction reaction was used to measure growth and chemosensitivity. The test samples were tested in triplicate on one occasion. Cells were seeded in microtiter plates at a density of 10^5 cells/mL and incubated for 24 h prior to exposure. […]
valueType: CC50 (nM)

* CC[C@H]1CN2CCc3cc(OC)c(OC)cc3[C@@H]2C[C@@H]1C[C@H]1NCCc2cc(OC)c(OC)cc21 [Emetine, reference compound] | 60
